Biological target: SF3b complexes (Homo sapiens, UniProt O75533+Q7RTV0)
Construct: endogenous in cells
Assay: Scintillation proximity assay (SPA) with [3H]-labelled pladienolide probe
Assay type: binding
Settings: wt SF3B1, read-out: SPA (wt SF3B1 cells) IC50
Binarize IC50 at 5 nM; below is T, at or above is F.

C/C(=C\C=C\[C@@H](C)COC(=O)N1CCC[C@H]1CO)[C@H]1OC(=O)CCCCC[C@@H](OC(=O)N2CCN(CC(F)(F)F)CC2)/C=C/[C@@H]1C    F

Task item: Hello, I'm reviewing records and need to know if IC50 of COC(=O)CC[C@H](C)/C=C/C=C(\C)[C@H]1OC(=O)C[C@H](O)CC[C@@](C)(O)[C@@H](OC(=O)N2CCN(C3CCCCCC3)CC2)/C=C/[C@@H]1C is below 5 nM. Could you check?
Reply: T

Task item: Is it true that IC50 reported for C/C(=C\C=C\[C@@H](C)COC(=O)N1CC[C@@H](C(=O)O)C1)[C@H]1OC(=O)C[C@H](O)CC[C@@](C)(O)[C@@H](OC(=O)N2CCN(C3CCCCCC3)CC2)/C=C/[C@@H]1C is less than 5 nM?
Reply: T

Task item: For C/C(=C\C=C\[C@@H](C)c1ccccn1)[C@H]1OC(=O)C[C@H](O)CC[C@H](C)[C@@H](OC(=O)N2CCN(C3CCCCCC3)CC2)/C=C/[C@@H]1C , is the recorded IC50 below the cut-off of 5 nM?
Reply: F
